- Test system: MDR1 (P-gp)
- Assay Procedure: MDCK-MDR1 permeability assay, blood-brain-barrier penetration potential
- Protocol Conditions: dog, MDCK-MDR1, pH 7.4, MDCK-MDR1 Efflux Ratio
Tag: class 1 if measured efflux ratio at 120 min, 5 μM is not below 3, class 0 if it is.

[[record]]
molecule = "CN(c1cnc(-c2ccc(-c3cn[nH]c3)cc2O)cn1)[C@@H]1C[C@H]2CCCC(N2)[C@@H]1F (single isomer, unassigned)"
answer_label = "class 1"

[[record]]
molecule = "CN(c1cnc(-c2ccc(-c3cnn(CF)c3)cc2O)cn1)[C@H]1C[C@@H]2CCC(N2)[C@H]1F (single isomer, unassigned)"
answer_label = "class 1"

[[record]]
molecule = "CN(c1cnc(-c2ccc(-c3ccn(CF)c(=O)c3)cc2O)cn1)[C@H]1C[C@@H]2CCC(N2)[C@H]1F (single isomer, unassigned)"
answer_label = "class 1"

[[record]]
molecule = "CN(c1cnc(-c2cc(F)c(-c3ccn(C)c(=O)c3)cc2O)cn1)[C@@H]1CC2CCC[C@H](N2)[C@@H]1F (single isomer, unassigned)"
answer_label = "class 1"

[[record]]
molecule = "COc1cc(-c2ccc(-c3cnc(N(C)[C@H]4C[C@@H]5COCC(N5)[C@H]4F)cn3)c(O)c2)cnn1 (single isomer, unassigned)"
answer_label = "class 1"

[[record]]
molecule = "Cn1cc(-c2cc(O)c(-c3cnc(N(C4CC4)[C@@H]4C[C@H]5CC[C@H](N5)[C@@H]4F)cn3)cc2F)cn1"
answer_label = "class 1"

[[record]]
molecule = "CN(c1cnc(-c2cc(F)c(-n3ccnn3)cc2O)cn1)[C@@H]1CC2CC[C@H](N2)[C@@H]1F (single isomer, unassigned)"
answer_label = "class 1"

[[record]]
molecule = "CNC(=O)/C=C/c1cc(O)c(-c2cnc(N(C)[C@H]3C[C@]4(C)CC[C@@](C)(N4)[C@H]3F)cn2)cc1F"
answer_label = "class 1"

[[record]]
molecule = "COc1cc(-c2ccc(-c3cnc(N(C4CC4)[C@H]4C[C@@H]5CCC(N5)[C@H]4F)cn3)c(O)c2)ccn1 (single isomer, unassigned)"
answer_label = "class 0"

[[record]]
molecule = "CN(c1cnc(-c2cc(F)c(-c3cnn(C)c3)cc2O)cn1)[C@@H]1CC2CC(F)(F)[C@@H](C1)N2 (single isomer, unassigned)"
answer_label = "class 0"


Challenge: Does the molecule CN(c1cnc(-c2ccc(-c3cn[nH]c3)cc2O)cn1)[C@H]1C[C@]2(C)CCC[C@@](C)(N2)[C@H]1F have recorded efflux ratio at 120 min, 5 μM that is 3 or more?
Response given: class 0
